Test: Toxicity liver stage against HepG2, at 10uM
Type: cell-based
Set-up: test concentration 10 uM, cell line HepG2-A16-CD81EGFP
Details: human, HepG2-A16-CD81EGFP cells; read-out: INHIBITION
Measured cytotoxicity at 10 µM values are reported for all entries that follow.
Field: numeric (%). Do not append units.

Query :: Give the reported value of cytotoxicity at 10 µM for this record: CC(=O)N1CCN(C(=O)Cc2cnc(-c3c(Cl)cccc3Cl)s2)CC1
Result :: 7.27

Query :: Give the reported value of cytotoxicity at 10 µM for this record: Cc1oc(-c2ccoc2)nc1CN1CCCCC1CCn1cccn1 (stereo not drawn)
Result :: -3.65

Query :: Give the reported value of cytotoxicity at 10 µM for this record: CC(C)Oc1ncccc1CNC(=O)Nc1ccccn1
Result :: -9.41

----------
Assay: Toxicity liver stage against HepG2, at 10uM
Type: cell-based
Parameters: test concentration 10 uM, cell line HepG2-A16-CD81EGFP
Settings: human, HepG2-A16-CD81EGFP cells; read-out: INHIBITION
Measured cytotoxicity at 10 µM values are reported for all entries that follow.
Field: numeric (%). Do not append units.

Please review the entries below; each comes with its answer.
CC(C)c1cc(N2CCC(NS(C)(=O)=O)CC2)n2nccc2n1: 0.324
C[S+]([O-])CCNC(=O)N1CCSC2(CCCCC2)C1 (stereo unspecified): -0.363
CCCc1nnc(NC(=O)NC2CCOc3ccccc32)s1 (stereo unspecified): 3.72
Cc1noc(C)c1CN1CC[C@H](OCC2CC2)[C@@H](Cc2ccccc2)C1: -65.8
CNC(=O)NC(=O)CN1CCN(CC(F)(F)F)CC1(C)C: 10.7
CCc1cn[nH]c1C1CCCN(C(=O)c2cc(C#N)c(=O)[nH]c2C)C1 (stereo unspecified): -1.3

Query :: Give the reported value of cytotoxicity at 10 µM for this record: CN(C)C(=O)CN1CCCC(c2nccnc2-c2cccc(Cl)c2)C1 (stereo unspecified)
Result :: 4.21

Query :: Give the reported value of cytotoxicity at 10 µM for this record: CSCC(=O)N1CCc2[nH]nc(-c3ccc4c(c3)OCO4)c2C1
Result :: -139

Query :: Give the reported value of cytotoxicity at 10 µM for this record: Cc1cc(NC(=O)CNC(C)(C)c2nc(C)c(C)s2)no1
Result :: 13.3

Query :: Give the reported value of cytotoxicity at 10 µM for this record: CCn1cc(CN2CCCN(C(=O)c3cccn3C)CC2)cn1
Result :: -5.85

Query :: Give the reported value of cytotoxicity at 10 µM for this record: Cc1cn2c(CN(C)C(=O)c3ncoc3C)c(C)nc2s1
Result :: -3.28

Query :: Give the reported value of cytotoxicity at 10 µM for this record: CC(=O)N1CCC(CCNC(C)c2cc(C)cc(C)c2)CC1 (stereo unspecified)
Result :: -9.8

----------
Experiment: Toxicity liver stage against HepG2, at 10uM
Assay type: cell-based
Set-up: test concentration 10 uM, cell line HepG2-A16-CD81EGFP
Settings: human, HepG2-A16-CD81EGFP cells; read-out: INHIBITION
readout: cytotoxicity at 10 µM (%)
Field: numeric (%). Do not append units.

c1csc(CN2CCc3nc(N4CCOCC4)nc(NC4CC4)c3C2)n1: 0.0529

// moving on: another record for cytotoxicity at 10 µM
Query :: Give the reported value of cytotoxicity at 10 µM for this record: COc1ccc(N2CCN(C(=O)CCc3n[nH]c(C)n3)CC2=O)cc1
Result :: -0.524

----------
Test: Toxicity liver stage against HepG2, at 10uM
Type: cell-based
Parameters: test concentration 10 uM, cell line HepG2-A16-CD81EGFP
Details: human, HepG2-A16-CD81EGFP cells; read-out: INHIBITION
Measured cytotoxicity at 10 µM values are reported for all entries that follow.
Field: numeric (%). Do not append units.

CC(=O)N1N=C(c2ccccc2)OC1C(=O)NCCC1=CCCCC1 (configuration not stated): 9.74
CC(C)(C)C(=O)NCCC(=O)NS(=O)(=O)c1ccc2c(c1)OCCO2: -3.81
Cc1nsc(N2CCN(CC(=O)N(C3CC3)C(C)C3CC3)CC2)n1 (configuration not stated): -12.4
COc1cccc(N2C(=O)CC3(CCCNC3)C2=O)c1 (configuration not stated): 1.52
COCCCNC(=O)Cc1cc(-c2ccc(Cl)cc2)on1: -21.4
Cn1ncc2c1CCCN(C(=O)C1CCC1)C2: -3.15

Query :: Give the reported value of cytotoxicity at 10 µM for this record: CCCn1nccc1C(=O)Nc1nc(C)c(C)s1
Result :: -6.19

----------
Experiment: Toxicity liver stage against HepG2, at 10uM
Format: cell-based
Design: test concentration 10 uM, cell line HepG2-A16-CD81EGFP
Conditions: human, HepG2-A16-CD81EGFP cells; read-out: INHIBITION
readout: cytotoxicity at 10 µM (%)
Field: numeric (%). Do not append units.

Please review the entries below; each comes with its answer.
Cc1nccn1CCCC(=O)N1CCCC(c2noc(C(C)C)n2)C1 (stereo unspecified): -35.8
CC(=O)Nc1cccc(CN2CCN(C3=NCC(C)(C)S3)CC2)c1: 0.955
Cc1cc(C)n(C2CN(CC(O)COc3ccc(F)cc3)C2)n1 (stereo unspecified): -10.5
OCC1CCCN1c1cc(NCc2ccsc2)ncn1 (stereo unspecified): 38.8
c1cncc(OCc2noc3c2CN(Cc2ccco2)CC3)c1: 1.71
Cn1c(SCC(N)=O)nnc1-c1csc2c1CCCC2: 36.2

// moving on: another record for cytotoxicity at 10 µM
Query :: Give the reported value of cytotoxicity at 10 µM for this record: CCOCC(=O)N1CCC2(CC1)COCCN2CCN(C)C
Result :: -0.464

----------
Assay: Toxicity liver stage against HepG2, at 10uM
Assay type: cell-based
Design: test concentration 10 uM, cell line HepG2-A16-CD81EGFP
Conditions: human, HepG2-A16-CD81EGFP cells; read-out: INHIBITION
Measured cytotoxicity at 10 µM values are reported for all entries that follow.
Field: numeric (%). Do not append units.

Please review the entries below; each comes with its answer.
CCc1cnc(CNC(=O)NCCc2ccc(O)cc2)s1: 2.31
CCC(O)CNc1ccc(-c2nc(CC(C)C)no2)cn1 (stereo not drawn): -6.19
O=C(CCc1ccccc1F)N1CCC(Nc2cccnn2)CC1: -3.78

Query :: Give the reported value of cytotoxicity at 10 µM for this record: Cc1ccc(OCCN(C)C(C)c2cccc(S(N)(=O)=O)c2)cc1 (stereo not drawn)
Result :: -29.3

Query :: Give the reported value of cytotoxicity at 10 µM for this record: O=C(c1cccs1)N1CCc2ncc(Cn3cncn3)n2CC1
Result :: -89.8

Query :: Give the reported value of cytotoxicity at 10 µM for this record: Cn1c(=O)[nH]c(=O)n2c(CC(=O)Nc3ccc(Cl)c(Cl)c3)cnc12
Result :: 3.82

Query :: Give the reported value of cytotoxicity at 10 µM for this record: O=C(O)c1csc(S(=O)(=O)N2CCCc3ccc(F)cc32)c1
Result :: 16.6

Query :: Give the reported value of cytotoxicity at 10 µM for this record: CCOC(=O)[C@]12CCCN(Cc3cccs3)C[C@H]1CN(CC(C)C)C2
Result :: 10.8

Query :: Give the reported value of cytotoxicity at 10 µM for this record: Cc1nn2cc(CNc3nccc(CCC(F)(F)F)n3)nc2s1
Result :: -8.27

----------
Assay: Toxicity liver stage against HepG2, at 10uM
Assay type: cell-based
Set-up: test concentration 10 uM, cell line HepG2-A16-CD81EGFP
Details: human, HepG2-A16-CD81EGFP cells; read-out: INHIBITION
readout: cytotoxicity at 10 µM (%)
Field: numeric (%). Do not append units.

Please review the entries below; each comes with its answer.
CC(C)(O)CCc1ccc(C(=O)N2CCN(CC3CCCC3)CC2)cc1: 12.4
COCC(C)(O)CNC(=O)COc1ccccc1OC (configuration not stated): -12.2
CC(C)NC(=O)N1CC[C@H]2N(C)CC[C@@]2(C(=O)Nc2cccnc2)CC1: -109
Cc1cc(C)n(C2CN(C(=O)c3cn4ccsc4n3)C2)n1: 4.99
CCc1ncc2c(n1)CN(c1nc(C)ccc1C(=O)O)C2: 8.25
O=S(=O)(CC1CCCCO1)Nc1cc(F)ccc1-n1cccn1 (configuration not stated): 7.71

Query :: Give the reported value of cytotoxicity at 10 µM for this record: Cc1cc(C)n(CC(C)Nc2nc(C)nc3c2CCNC3)n1 (configuration not stated)
Result :: 2.51

----------
Measured cytotoxicity at 10 µM values are reported for all entries that follow.
Assay: Toxicity liver stage against HepG2, at 10uM
Assay type: cell-based
Set-up: test concentration 10 uM, cell line HepG2-A16-CD81EGFP
Conditions: human, HepG2-A16-CD81EGFP cells; read-out: INHIBITION
Field: numeric (%). Do not append units.

Query :: Give the reported value of cytotoxicity at 10 µM for this record: CCC1CN(Cc2nnc(C3CC3)o2)CCN1CCOC (configuration not stated)
Result :: 3.13

Query :: Give the reported value of cytotoxicity at 10 µM for this record: Cc1nn(C)c2c(NCCn3cccn3)ncnc12
Result :: -1.26

Hello, the source for this data is ChEMBL document CHEMBL4513216, in case you need it.
